- protocol: Cmax in Sprague-Dawley rat at 5 mg/kg, iv by LC-MS/MS analysis
- Format: ADME, organism-based
- Design: dose 5 mg/kg, route intravenous
- study conditions: in vivo
attribute measured: Cmax (ng/mL)
Reply numerically in ng/mL, unit not repeated.

Cmax recorded for this compound, N#Cc1cccnc1N1CCN(C(=O)c2cc(Cc3n[nH]c(=O)c4ccccc34)cc(F)c2F)CC1 , is 3260

----------
- protocol: AUC in Sprague-Dawley rat at 10 mg/kg, iv by LC-MS/MS analysis
- Format: ADME, organism-based
- study conditions: in vivo
attribute measured: AUC (ng·h/mL)
Reply numerically in ng·h/mL, unit not repeated.

AUC recorded for this molecule, O=C(c1cc(Cc2n[nH]c(=O)c3ccccc23)ccc1F)N1CCN(C(=O)C2CC2)CC1 , is 5500
